Target Or System: L-lactate dehydrogenase A chain (Homo sapiens)
Measurement Notes: Inhibition of human recombinant carboxy-terminal His-tagged LDHA by UV endpoint assay
pIC50: −log10 of the molar value.
Recorded pIC50 by entry

The examples below pair each entry with its known result.
>>> reading("Cc1cc(C)nc(SC2=C(O)CC(c3ccccc3)CC2=O)n1 (stereo not drawn)")
"< 4.00"
>>> reading("Cc1cccc(C)c1SC1=C(O)CC(c2ccccc2)CC1=O (stereo not drawn)")
"< 4.00"
>>> reading("Cc1ccccc1CSC1=C(O)CC(c2ccccc2)CC1=O (stereo not drawn)")
"< 4.00"
>>> reading("N#Cc1ccccc1SC1=C(O)CC(c2ccccc2)CC1=O (stereo not drawn)")
5.80
>>> reading("Cc1ccc(SC2=C(O)CC(c3ccccc3)CC2=O)cc1C (stereo not drawn)")
"< 4.00"
>>> reading("O=C1CC(c2ccccc2)CC(O)=C1Sc1nc2ccccc2s1 (stereo not drawn)")
"< 4.00"
>>> reading("N#Cc1ccccc1SC1=C(O)CC(c2c(Br)cccc2Br)CC1=O (stereo not drawn)")
6.74
>>> reading("O=C1CC(c2ccccc2)CC(O)=C1SCc1ccc(Cl)cc1Cl (stereo not drawn)")
"< 4.00"

Query block: Given NS(=O)(=O)c1cccc(SC2=C(O)CC(c3ccccc3)CC2=O)c1 (stereo not drawn) , state its recorded pIC50.
Result block: < 4.00

Query block: Given Cc1cccc(C)c1C1CC(=O)C(Sc2ccccc2Cl)=C(O)C1 (stereo not drawn) , state its recorded pIC50.
Result block: 5.64

----------
Measurement Notes: Apparent permeability from apical to basolateral side in MDCK cells at 2 uM by LC-MS/MS analysis
Assay type: ADME, cell-based, Canis lupus familiaris
Measurement Setup: dog
Test Readout: Papp A→B at 2 µM (×10⁻⁶ cm/s)
Just the number please, in ×10⁻⁶ cm/s, no unit attached.

The examples below pair each entry with its known result.
>>> reading("O=C1CC(c2ccccc2)CC(O)=C1Sc1ccccc1Cl (centres undefined)")
18
>>> reading("N#Cc1ccccc1SC1=C(O)CC(c2c(Cl)cccc2Br)CC1=O (centres undefined)")
14
>>> reading("O=C1CC(c2c(Cl)cccc2Cl)CC(O)=C1Sc1ccccc1Cl (centres undefined)")
17

Then this molecule:
Query block: Given N#Cc1ccccc1SC1=C(O)CC(c2ccccc2)CC1=O (centres undefined) , state its recorded Papp A→B at 2 µM.
Result block: 4.1

----------
Measurement Notes: Dissociation constant, pKa of the compound
Assay type: physicochemical
Test Readout: pKa
Please reply with the value in numeric form only.

Query block: Given O=C1CC(c2ccccc2)CC(O)=C1Sc1ccccc1[N+](=O)[O-] (stereo unspecified) , state its recorded pKa.
Result block: 2.63

----------
Target Or System: L-lactate dehydrogenase A chain (Homo sapiens)
Measurement Notes: Inhibition of human recombinant carboxy-terminal His-tagged LDHA by UV endpoint assay
Test Readout: log10 of IC50 (log10 of the value in µM)
Please interpret these as log10 of IC50 where IC50 is in µM.

The examples below pair each entry with its known result.
>>> reading("O=C1CC(c2c(Cl)ccc(Br)c2Cl)CC(O)=C1Sc1ccccc1Cl (stereo unspecified)")
-0.30
>>> reading("O=C1CC(c2ccccc2)CC(O)=C1Sc1cccc(Cl)c1Cl (stereo unspecified)")
1.80

Query block: Given COc1ccc(C2CC(=O)C(Sc3ccccc3Cl)=C(O)C2)cc1 (stereo unspecified) , state its recorded log10 of IC50.
Result block: 1.28

Query block: Given O=C1CC(c2c(Cl)cccc2Cl)CC(O)=C1Sc1ccccc1Cl (stereo unspecified) , state its recorded log10 of IC50.
Result block: -0.06

Query block: Given O=C1CC(c2c(Cl)cccc2C(F)(F)F)CC(O)=C1Sc1ccccc1Cl (stereo unspecified) , state its recorded log10 of IC50.
Result block: 0.00

----------
Recorded log10 IC50 by entry
Target Or System: L-lactate dehydrogenase B chain (Homo sapiens)
Sequence (P07195 whole entry): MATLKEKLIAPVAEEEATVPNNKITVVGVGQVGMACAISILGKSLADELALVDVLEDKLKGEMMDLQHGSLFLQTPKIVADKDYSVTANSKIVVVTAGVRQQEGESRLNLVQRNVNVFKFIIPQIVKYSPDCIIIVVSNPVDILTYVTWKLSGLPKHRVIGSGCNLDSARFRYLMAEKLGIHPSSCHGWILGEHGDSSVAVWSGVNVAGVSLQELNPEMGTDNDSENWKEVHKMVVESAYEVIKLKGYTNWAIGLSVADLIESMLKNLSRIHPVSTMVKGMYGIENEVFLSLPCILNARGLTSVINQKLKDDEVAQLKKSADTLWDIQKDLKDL
Please interpret these as log10 of IC50 where IC50 is in µM.

The examples below pair each entry with its known result.
>>> reading("N#Cc1ccccc1SC1=C(O)CC(c2c(Cl)cccc2C(F)(F)F)CC1=O (stereo unspecified)")
0.45
>>> reading("O=C1CC(c2c(Br)cccc2Br)CC(O)=C1Sc1ccccc1Cl (stereo unspecified)")
1.18
>>> reading("N#Cc1ccccc1SC1=C(O)CC(c2c(Cl)cccc2Cl)CC1=O (stereo unspecified)")
0.69
>>> reading("COc1ccc(C2CC(=O)C(Sc3ccccc3Cl)=C(O)C2)cc1 (stereo unspecified)")
0.84

Then this compound:
Query block: Given O=C1CC(c2c(F)cccc2F)CC(O)=C1Sc1ccccc1Cl (stereo unspecified) , state its recorded log10 IC50.
Result block: 0.11

----------
Target Or System: UniProt:P40925
Sequence (P40925 whole entry): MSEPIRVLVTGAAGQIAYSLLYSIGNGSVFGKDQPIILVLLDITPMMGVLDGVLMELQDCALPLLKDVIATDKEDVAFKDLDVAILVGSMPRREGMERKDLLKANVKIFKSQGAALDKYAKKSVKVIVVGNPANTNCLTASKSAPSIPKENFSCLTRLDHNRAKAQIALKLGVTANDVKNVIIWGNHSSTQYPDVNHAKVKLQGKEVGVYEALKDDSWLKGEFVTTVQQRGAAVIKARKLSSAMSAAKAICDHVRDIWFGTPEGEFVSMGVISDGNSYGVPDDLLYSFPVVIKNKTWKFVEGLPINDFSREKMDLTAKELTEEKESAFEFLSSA
Measurement Notes: Inhibition of human recombinant carboxy-terminal His-tagged MDH-1
pIC50: −log10 of the molar value.
Test Readout: pIC50

Query block: UniProt:P40925 / pIC50 / O=C1CC(c2c(Cl)cccc2Cl)CC(O)=C1Sc1ccccc1Cl (stereo unspecified) : value?
Result block: < 4.00

----------
Measurement Notes: Clearance in human liver microsomes at 1 uM up to 60 mins by LC-MS/MS analysis
Format: ADME
Each entry gets Not met if its CLhep predicted at 1 µM stays under 10 mL/min/kg, and Met if its CLhep predicted at 1 µM is 10 mL/min/kg or above.

Example cases with answers are listed next.
>>> label("N#Cc1ccccc1SC1=C(O)CC(c2ccccc2)CC1=O (configuration not stated)")
"Not met"
>>> label("N#Cc1ccccc1SC1=C(O)CC(c2c(Cl)cccc2Br)CC1=O (configuration not stated)")
"Met"
>>> label("O=C1CC(c2c(Cl)cccc2C(F)(F)F)CC(O)=C1Sc1ccccc1Cl (configuration not stated)")
"Met"
>>> label("O=C1CC(c2c(C(F)(F)F)cccc2C(F)(F)F)CC(O)=C1Sc1ccccc1Cl (configuration not stated)")
"Met"
>>> label("N#Cc1ccccc1SC1=C(O)CC(c2c(Cl)cccc2Cl)CC1=O (configuration not stated)")
"Met"
>>> label("O=C1CC(c2ccccc2)CC(O)=C1Sc1ccccc1Cl (configuration not stated)")
"Not met"

Query block: In plain terms: is recorded CLhep predicted at 1 µM at least 10 mL/min/kg for O=C1CC(c2c(Cl)cccc2Cl)CC(O)=C1Sc1ccccc1Cl (configuration not stated) ?
Result block: Met

----------
Target Or System: Malate dehydrogenase, mitochondrial (Homo sapiens, UniProt P40926)
Sequence (P40926 whole entry): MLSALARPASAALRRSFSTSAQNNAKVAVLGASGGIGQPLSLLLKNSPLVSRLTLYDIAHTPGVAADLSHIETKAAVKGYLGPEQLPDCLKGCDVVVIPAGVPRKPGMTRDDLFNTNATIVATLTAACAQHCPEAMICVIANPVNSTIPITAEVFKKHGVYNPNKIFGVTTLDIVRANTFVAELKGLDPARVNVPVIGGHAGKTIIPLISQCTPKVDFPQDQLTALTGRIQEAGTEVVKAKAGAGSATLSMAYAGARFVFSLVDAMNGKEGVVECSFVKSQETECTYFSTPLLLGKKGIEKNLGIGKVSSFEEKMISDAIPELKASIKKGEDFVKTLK
Measurement Notes: Inhibition of human recombinant carboxy-terminal His-tagged MDH-2
Test Readout: IC50

Query block: Given O=C1CC(c2c(Cl)cccc2Cl)CC(O)=C1Sc1ccccc1Cl (stereo unspecified) , state its recorded IC50.
Result block: > 100 µM

----------
Measurement Notes: Fraction unbound in human plasma by LC-MS/MS analysis
Assay type: ADME, cell-free
Recorded fraction unbound by entry
Please reply with the value in numeric form only.

The examples below pair each entry with its known result.
>>> reading("O=C1CC(c2ccccc2)CC(O)=C1Sc1ccccc1Cl (centres undefined)")
0.001
>>> reading("N#Cc1ccccc1SC1=C(O)CC(c2ccccc2)CC1=O (centres undefined)")
0.001
>>> reading("N#Cc1ccccc1SC1=C(O)CC(c2c(Cl)cccc2Br)CC1=O (centres undefined)")
0.002

Query block: Given O=C1CC(c2c(Cl)cccc2Cl)CC(O)=C1Sc1ccccc1Cl (centres undefined) , state its recorded fraction unbound.
Result block: 0.005

----------
Measurement Notes: AUC (0 to 24 hrs) in Sprague-Dawley rat at 0.5 mg/kg, iv
Format: ADME, organism-based
Set-up: time < 24 hr, dose 0.5 mg/kg, route intravenous
Measurement Setup: plasma
Test Readout: AUC(0-t) at 24 h (µM·h)
Just the number please, in µM·h, no unit attached.

Query block: Given O=C1CC(c2c(Cl)cccc2Cl)CC(O)=C1Sc1ccccc1Cl (stereo unspecified) , state its recorded AUC(0-t) at 24 h.
Result block: 60.3

----------
Target Or System: L-lactate dehydrogenase A chain (Homo sapiens, UniProt P00338)
Measurement Notes: Inhibition of human recombinant carboxy-terminal His-tagged LDHA by SPR assay
Test Readout: Kd (nM)
Just the number please, in nM, no unit attached.

The examples below pair each entry with its known result.
>>> reading("O=C1CC(c2ccccc2)CC(O)=C1Sc1ccccc1[N+](=O)[O-] (stereo not drawn)")
771000
>>> reading("O=C1CC(c2cccc(Cl)c2)CC(O)=C1Sc1ccccc1Cl (stereo not drawn)")
7100
>>> reading("O=C1CC(c2c(Cl)cccc2Cl)CC(O)=C1Sc1ccccc1Cl (stereo not drawn)")
1800
>>> reading("COc1ccc(C2CC(=O)C(Sc3ccccc3Cl)=C(O)C2)cc1 (stereo not drawn)")
13000
>>> reading("O=C1CC(c2c(Cl)cccc2Br)CC(O)=C1Sc1ccccc1Cl (stereo not drawn)")
490
>>> reading("O=C1CC(c2ccccc2)CC(O)=C1Sc1ccccc1Cl (stereo not drawn)")
4300

Then this molecule:
Query block: Given N#Cc1ccccc1SC1=C(O)CC(c2ccccc2)CC1=O (stereo not drawn) , state its recorded Kd.
Result block: 1500

Data credit: ChEMBL document CHEMBL3352775
